Source: the supplement of paper PMC9694430

Listed compounds paired with reported thermal shift delta Tm
System: LOC_OS03G12390-cb001
MEASUREMENT PROTOCOL: thermal shift delta Tm vs DMSO control; higher = stronger stabilization (binding);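 further: purified Escherichia coli-expressed rice kinase domain construct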
ASSAY CONTEXT: 12.5 µM; protein concentration 2 µM
Structures can show the parent of a compound that is named as a salt.

[
  {
    "COMPOUND": "COc1cc2c3cc1Oc1c(OC)c(OC)cc4c1[C@@H](Cc1ccc(O)c(c1)Oc1ccc(cc1)C[C@@H]3N(C)CC2)N(C)CC4 [Berbamine (dihydrochloride)]",
    "thermal shift delta Tm": "-0.42 °C"
  },
  {
    "COMPOUND": "O=C(NCCCNc1nc(Nc2cccc(NC(=O)N3CCCC3)c2)ncc1I)c1cccs1",
    "thermal shift delta Tm": "7.32 °C"
  },
  {
    "COMPOUND": "CCC(=O)Nc1cccc(Oc2nc(Nc3ccc(N4CCN(C)CC4)cc3OC)ncc2Cl)c1",
    "thermal shift delta Tm": "2.35 °C"
  },
  {
    "COMPOUND": "CCCCCCCCCC(=O)CC(O)S(=O)(=O)O (stereo not drawn) [Sodium Houttuyfonate]",
    "thermal shift delta Tm": "0.34 °C"
  },
  {
    "COMPOUND": "CC(C)(C)NC(=O)c1cncn1C1CCN(c2ccc(-c3nnc(C(F)(F)F)o3)cn2)CC1",
    "thermal shift delta Tm": "-0.08 °C"
  },
  {
    "COMPOUND": "CNCc1ccc(-c2cc(-c3nc(-c4ccc(S(=O)(=O)C(C)C)cc4)cnc3N)on2)cc1",
    "thermal shift delta Tm": "0.54 °C"
  },
  {
    "COMPOUND": "NC(=O)c1ccc(N(C(N)=O)c2c(F)cccc2F)nc1-c1ccc(F)cc1F",
    "thermal shift delta Tm": "-0.04 °C"
  },
  {
    "COMPOUND": "CN1CCN(S(=O)(=O)c2ccc(-c3cnc(N)c(C(=O)Nc4cccnc4)n3)cc2)CC1",
    "thermal shift delta Tm": "1.18 °C"
  }
]

---

Listed molecules paired with reported thermal shift delta Tm
System: LOC_OS02G54510-cb004
MEASUREMENT PROTOCOL: thermal shift delta Tm vs DMSO control; higher = stronger stabilization (binding)
ASSAY CONTEXT: 12.5 µM; protein concentration 2 µM
RECORDED ENDPOINT: thermal shift delta Tm (°C)

[
  {
    "MOLECULE": "CO[C@H]1C[C@@H]2CC[C@@H](C)[C@@](O)(O2)C(=O)C(=O)N2CCCC[C@H]2C(=O)O[C@H]([C@H](C)C[C@@H]2CC[C@@H](OCCO)[C@H](OC)C2)CC(=O)[C@H](C)/C=C(\\C)[C@@H](O)[C@@H](OC)C(=O)[C@H](C)C[C@H](C)/C=C/C=C/C=C/1C [Everolimus (RAD001)]",
    "REPORTED": -0.05
  },
  {
    "MOLECULE": "c1cncc(CN2CCC(n3ncc4c(N5CCOCC5)nc(-c5ccc6[nH]ccc6c5)nc43)CC2)c1",
    "REPORTED": -0.13
  },
  {
    "MOLECULE": "COc1ccc(COc2cc3oc(=O)c4cc(C(C)O)ccc4c3cc2OC)cc1 (centres undefined) [Palomid 529 (P529)]",
    "REPORTED": 0.29
  },
  {
    "MOLECULE": "CC(C)S(=O)(=O)c1ccc2nccc(Nc3ccc4scnc4c3)c2c1",
    "REPORTED": 0.89
  }
]

---

System: LOC_OS05G30820-cb001
MEASUREMENT PROTOCOL: thermal shift delta Tm vs DMSO control; higher = stronger stabilization (binding)
ASSAY CONTEXT: 12.5 µM; protein concentration 2 µM

[
  {
    "COMPOUND": "O=C1NC(=O)C(=Cc2ccc(-c3ccc(F)cc3)o2)S1 (stereo in doubt)",
    "thermal shift delta Tm / °C": 0.73
  },
  {
    "COMPOUND": "CNC(=O)c1cccc(-c2ccc3c(N4CCOC[C@@H]4C)nc(N4CCOC[C@@H]4C)nc3n2)c1 [Vistusertib (AZD2014)]",
    "thermal shift delta Tm / °C": 0.67
  },
  {
    "COMPOUND": "Cc1[nH]c(/C=C2\\C(=O)Nc3ccc(S(=O)(=O)Cc4c(Cl)cccc4Cl)cc32)c(C)c1C(=O)N1CCC[C@@H]1CN1CCCC1",
    "thermal shift delta Tm / °C": 0.48
  },
  {
    "COMPOUND": "CC(C)(CCCCCC(O)CCCCCC(C)(C)C(=O)O)C(=O)O",
    "thermal shift delta Tm / °C": 0.38
  },
  {
    "COMPOUND": "C[C@H](NC(=O)/C(C#N)=C/c1cccc(Br)n1)c1ccccc1",
    "thermal shift delta Tm / °C": 0.31
  },
  {
    "COMPOUND": "NC(=O)c1cnc(N[C@@H]2CCCC[C@@H]2N)nc1Nc1cccc(-n2nccn2)c1",
    "thermal shift delta Tm / °C": 2.09
  },
  {
    "COMPOUND": "COc1cc2ncnc(Nc3ccc(F)c(Cl)c3)c2cc1OCCCN1CCOCC1 [Gefitinib (ZD1839)]",
    "thermal shift delta Tm / °C": 0.41
  },
  {
    "COMPOUND": "C[C@@H](Oc1cc(-c2cnn(C3CCNCC3)c2)cnc1N)c1c(Cl)ccc(F)c1Cl",
    "thermal shift delta Tm / °C": 0.39
  },
  {
    "COMPOUND": "Cn1cnc2c(F)c(Nc3ccc(Br)cc3Cl)c(C(=O)NOCCO)cc21 [Selumetinib (AZD6244)]",
    "thermal shift delta Tm / °C": 0.51
  },
  {
    "COMPOUND": "Cc1cc2c(F)c(Oc3ncnn4cc(OC[C@@H](C)O)c(C)c34)ccc2[nH]1",
    "thermal shift delta Tm / °C": 0.47
  },
  {
    "COMPOUND": "CCCNC(=O)Nc1ccc(Oc2ncnc3cc(OC)c(OC)cc23)cc1Cl",
    "thermal shift delta Tm / °C": 0.49
  },
  {
    "COMPOUND": "Cc1cc(Nc2cc(N3CCN(C)CC3)nc(/C=C/c3ccccc3)n2)n[nH]1 [ENMD-2076 L-(+)-Tartaric acid]",
    "thermal shift delta Tm / °C": 1.55
  },
  {
    "COMPOUND": "CS(=O)(=O)N1CCc2c(-c3cnc(N)nc3)nc(N3CCOCC3)nc21",
    "thermal shift delta Tm / °C": 0.79
  },
  {
    "COMPOUND": "CN1CCN(c2ccc3nc(-c4c(N)c5c(F)cccc5[nH]c4=O)[nH]c3c2)CC1 [Dovitinib (TKI-258, CHIR-258)]",
    "thermal shift delta Tm / °C": 0.71
  },
  {
    "COMPOUND": "CO[C@@H](C)Cn1c(=O)n(C)c2cnc3ccc(-c4cncc(C(C)(C)O)c4)cc3c21",
    "thermal shift delta Tm / °C": 0.49
  },
  {
    "COMPOUND": "O=C(c1ccc(/C=C/c2n[nH]c3ccccc23)cc1)N1CCNCC1",
    "thermal shift delta Tm / °C": 1.8
  },
  {
    "COMPOUND": "N#Cc1cnc(Nc2cc(NC[C@H]3CNCCO3)c(C(F)(F)F)cn2)cn1",
    "thermal shift delta Tm / °C": 0.75
  },
  {
    "COMPOUND": "COc1ccc(-c2ccc3ncc4c(c3c2)n(-c2ccc(N3CCNCC3)c(C(F)(F)F)c2)c(=O)n4C)cn1",
    "thermal shift delta Tm / °C": 0.54
  },
  {
    "COMPOUND": "CCn1c(C(=O)N(C2CC2)C2CC2)cc2c3c(ncn3C)c(Nc3cc(C)n(C)n3)nc21",
    "thermal shift delta Tm / °C": 0.47
  },
  {
    "COMPOUND": "CC(C)c1cnn2c(NCc3ccccc3)cc(NCCCCCCN)nc12",
    "thermal shift delta Tm / °C": 0.42
  },
  {
    "COMPOUND": "CO[C@H]1C[C@@H]2CC[C@@H](C)[C@@](O)(O2)C(=O)C(=O)N2CCCC[C@H]2C(=O)O[C@H]([C@H](C)C[C@@H]2CC[C@H](n3cnnn3)[C@H](OC)C2)CC(=O)[C@H](C)/C=C(\\C)[C@@H](O)[C@@H](OC)C(=O)[C@H](C)C[C@H](C)/C=C/C=C/C=C/1C [Zotarolimus(ABT-578)]",
    "thermal shift delta Tm / °C": 0.57
  },
  {
    "COMPOUND": "Nc1nccc(Oc2ccc3c(C(=O)Nc4cccc(C(F)(F)F)c4)cccc3c2)n1",
    "thermal shift delta Tm / °C": 0.73
  },
  {
    "COMPOUND": "C=CC(=O)Nc1cccc(Oc2nc(Nc3ccc(N4CCN(C)CC4)cc3)nc3ccsc23)c1",
    "thermal shift delta Tm / °C": 1.14
  },
  {
    "COMPOUND": "C1=N/C2=N/c3ccc(OCCN4CCCC4)c(c3)COC/C=C/COCc3cccc(c3)C(=C1)N2 [Pacritinib (SB1518)]",
    "thermal shift delta Tm / °C": 0.55
  },
  {
    "COMPOUND": "CC(C)(O)CNc1ncc(-c2ccnc(Nc3ccncc3)n2)c(CC2CC2)n1 [VPS34 inhibitor 1 (Compound 19, PIK-III analogue)]",
    "thermal shift delta Tm / °C": 0.25
  },
  {
    "COMPOUND": "CN(c1ccccc1CNc1nc(Nc2ccc3c(c2)CC(=O)N3)ncc1C(F)(F)F)S(C)(=O)=O",
    "thermal shift delta Tm / °C": 4
  },
  {
    "COMPOUND": "Cn1cc(-c2ccc(F)c(C(F)(F)F)c2)nc1C1CCN(c2ncnc3[nH]ncc23)CC1",
    "thermal shift delta Tm / °C": 0.54
  },
  {
    "COMPOUND": "C=CC(=O)N1CCC[C@@H](n2nc(-c3ccc(Oc4ccccc4)cc3)c3c(N)ncnc32)C1",
    "thermal shift delta Tm / °C": 0.44
  },
  {
    "COMPOUND": "O=C(Nc1ccc(OC(F)(F)F)cc1)c1sccc1NCc1ccnc2ccccc12",
    "thermal shift delta Tm / °C": 0.65
  },
  {
    "COMPOUND": "Cc1c(Cn2c(C)nc3c(C(=O)O)cc(N4CCOCC4)cc32)cccc1C(F)(F)F",
    "thermal shift delta Tm / °C": 0.36
  },
  {
    "COMPOUND": "O=C(O)CCC(=O)Nc1ccc(Br)cn1 [Bikinin]",
    "thermal shift delta Tm / °C": 0.45
  },
  {
    "COMPOUND": "C[C@H](NC(=O)c1c(N)nn2cccnc12)c1cc2cccc(C#Cc3cnn(C)c3)c2c(=O)n1-c1ccccc1",
    "thermal shift delta Tm / °C": 0.07
  },
  {
    "COMPOUND": "FC(F)(F)c1ccc(CNc2ccc(Cc3c[nH]c4ncc(Cl)cc34)cn2)cn1 [Pexidartinib (PLX3397)]",
    "thermal shift delta Tm / °C": 0.74
  }
]
